Hello, the source for this data is patent US20250352579A1, in case you need it.

Target: T1, CD7 on cells (K562-CD7 positive cells; KG-1a-GFP-Luc; CCRF-CEM) (UniProt P09564 26-240, limits assumed)
T1 sequence (looked up): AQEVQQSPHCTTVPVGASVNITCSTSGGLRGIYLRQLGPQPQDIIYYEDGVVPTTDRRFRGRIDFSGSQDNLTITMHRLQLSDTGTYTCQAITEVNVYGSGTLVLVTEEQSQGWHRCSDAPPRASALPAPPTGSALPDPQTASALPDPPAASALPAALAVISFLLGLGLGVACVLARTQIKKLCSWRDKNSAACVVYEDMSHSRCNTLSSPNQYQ
Test: cell-based or functional assay
test-readout: killing ratio, CAR-T cells on KG-1a-GFP-Luc, E:T=3:1, 4 h, luciferase (%)

| binder | result-number |
| --- | --- |
| VHH07 single VHH CAR (other) QVQLQESGGGLVQAGGSLRLSCAASGRTFSSYVMKWFRQAPGKGREFVAGISWSGSLTSYSDSVKGRFTISRDNAKNTVYLQMNSLKPEDTAVYYCAAGEAATMSDTDYGMDYWGKGTQVTVSSTTPAPRPPTPAPTIASQPLSLRPEACRPAAGGAVHTRGLDFACDIYIWAPLAGTCGVLLLSLVITLYCKRGRKKLLYIFKQPFMRPVQTTQEEDGCSCRFPEEEEGGCELRVKFSRSADAPAYKQGQNQLYNELNLGRREEYDVLDKRRGRDPEMGGKPRRKNPQEGLYNELQKDKMAEAYSEIGMKGERRRGKGHDGLYQGLSTATKDTYDALHMQALPPR | 61.6 |
